# procedure text: In-vivo pharmacokinetic analysis of calcined metal (hydr)oxide-docetaxel compositions, single oral administration
# settings: rat, 40 mg/kg
experimental readout: half-life (h)
Give just the number in h; leave the unit off.

In plain terms, CC(=O)O[C@@]12CO[C@@H]1C[C@H](O)[C@@]1(C)C(=O)[C@H](O)C3=C(C)[C@@H](OC(=O)[C@H](O)[C@@H](NC(=O)OC(C)(C)C)c4ccccc4)C[C@@](O)([C@@H](OC(=O)c4ccccc4)[C@H]21)C3(C)C has a documented half-life of 9.41

* * *

# procedure text: In-vivo pharmacokinetic analysis of calcined metal (hydr)oxide-docetaxel compositions, single oral administration
# settings: rat, 40 mg/kg, Cmax, Docetaxel PO 40 mg/kg, rats
experimental readout: Cmax
Please report the result as a number followed by the unit.

In plain terms, CC(=O)O[C@@]12CO[C@@H]1C[C@H](O)[C@@]1(C)C(=O)[C@H](O)C3=C(C)[C@@H](OC(=O)[C@H](O)[C@@H](NC(=O)OC(C)(C)C)c4ccccc4)C[C@@](O)([C@@H](OC(=O)c4ccccc4)[C@H]21)C3(C)C has a documented Cmax of 5.25 ng/mL
